These measurements were taken from patent US7244727B2.

Consider the following compounds and their measured melting point readings.

COMPOUND: Cc1nc(N)c2c(n1)OC(C)(C)C(c1ccc([C@H]3CC[C@H](CN4CCOC4=O)CC3)cc1)=N2 [Example 2-158]
melting point: 240 to 241 °C
//
COMPOUND: CC1(C)Oc2ncnc(N)c2N=C1c1ccc([C@H]2CC[C@H](CS(N)(=O)=O)CC2)cc1
melting point: > 250 °C
//
COMPOUND: CC1(C)Oc2ncnc(N)c2NC1c1ccc([C@H]2CC[C@H](NS(N)(=O)=O)CC2)cc1 (stereo partly shown) [Example 2-222]
melting point: > 250 °C
//
COMPOUND: CC1(C)Oc2ncnc(N)c2N=C1c1ccc(C2(C)CCC(CC(=O)O)CC2)cc1 (stereo not shown) [Example 2-67]
melting point: > 250 °C

###

Consider the following compounds and their measured melting point readings.
ASSAY ENDPOINT: melting point

COMPOUND: CC1CCC(c2ccc(C3=Nc4c(N)ncnc4OC3(C)C)cc2)CC1 (centres unmarked)
ASSAY RESULT: 201 to 209 °C
--
COMPOUND: CC1(C)Oc2ncnc(N)c2N=C1c1ccc([C@H]2CC[C@H](C(=O)CO)CC2)cc1
ASSAY RESULT: 213 to 214 °C
--
COMPOUND: Cc1nc(N)c2c(n1)OC(C)(C)C(c1ccc([C@H]3CC[C@H](CNC(=O)CO)CC3)cc1)=N2
ASSAY RESULT: 235 to 238 °C
--
COMPOUND: Nc1ncnc2c1N=C(c1ccc(-c3ccccc3)cc1)CO2
ASSAY RESULT: > 250 °C
--
COMPOUND: Cc1nc(N)c2c(n1)OC(C)(C)C(c1ccc([C@H]3CC[C@H](CC(=O)N(C)CC(=O)O)CC3)cc1)=N2
ASSAY RESULT: 196 to 198 °C
--
COMPOUND: Cc1nc(N)c2c(n1)OC(C)(C)C(c1ccc(C3CC(CC(=O)O)C3)cc1)=N2 (centres unmarked)
ASSAY RESULT: > 250 °C
--
COMPOUND: Cc1nc(N)c2c(n1)OC(C)(C)C(c1ccc([C@H]3CC[C@H](CNC(N)=O)CC3)c(Cl)c1)=N2
ASSAY RESULT: 160 to 166 °C
--
COMPOUND: CC(C)(NC(=O)C[C@H]1CC[C@H](c2ccc(C3=Nc4c(N)ncnc4OC3(C)C)cc2)CC1)C(=O)O
ASSAY RESULT: 243 to 244 °C
--
COMPOUND: CC1(C)Oc2ncnc3[nH]c(=O)n(c23)C1c1ccc(Br)cc1 (centres unmarked)
ASSAY RESULT: > 220 °C
--
COMPOUND: CC1(C)Oc2ncnc(N)c2NC1c1ccc(-c2ccc(CC(=O)O)cc2)cc1 (centres unmarked)
ASSAY RESULT: 267 °C (dec.)
--
COMPOUND: CC1(C)Oc2ncnc(N)c2N=C1c1ccc([C@H]2CC[C@H](C(=O)N3CCOCC3)CC2)cc1
ASSAY RESULT: 233 to 235 °C
--
COMPOUND: Nc1ncnc2c1NC(c1ccc(Cl)cc1Cl)CO2 (centres unmarked)
ASSAY RESULT: > 220 °C
--
COMPOUND: Nc1cccc2c1N=C(c1ccc(Br)cc1)CO2
ASSAY RESULT: 75 to 77 °C
--
COMPOUND: CC1(C)Oc2ncnc(N)c2N=C1c1ccc([C@H]2CC[C@H](CC(O)C(F)(F)F)CC2)cc1 (some centres unmarked)
ASSAY RESULT: 271 to 272 °C
--
COMPOUND: CC1(C)Oc2ncnc(N)c2N=C1c1ccc([C@H]2CC[C@H](CC(=O)N3C[C@@H](O)[C@@H](O)C3)CC2)cc1
ASSAY RESULT: 250 to 252 °C
--
COMPOUND: CC1(C)Oc2ncnc(N)c2N=C1c1ccc([C@H]2CC[C@H](CC(=O)N3CCNCC3)CC2)cc1.Cl.Cl
ASSAY RESULT: > 250 °C
--
COMPOUND: CC1(C)Oc2ncnc(N)c2NC1c1ccc(Br)cc1 (centres unmarked)
ASSAY RESULT: > 220 °C
--
COMPOUND: Cc1nc(N)c2c(n1)OC(C)(C)C(c1ccc([C@H]3CC[C@H](CN4CCC(O)C4=O)CC3)cc1)=N2 (some centres unmarked)
ASSAY RESULT: 225 to 233 °C
--
COMPOUND: CC1(C)Oc2ncnc(N)c2N=C1c1ccccc1
ASSAY RESULT: 189 to 190 °C
--
COMPOUND: Cc1nc(N)c2c(n1)OC(C)(C)C(c1ccc([C@H]3CC[C@H](CCc4nc(=O)o[nH]4)CC3)cc1)=N2
ASSAY RESULT: 250 °C (dec.)
--
COMPOUND: CC1Oc2ncnc(N)c2N=C1c1ccc(Br)cc1 (centres unmarked)
ASSAY RESULT: 222 to 224 °C
--
COMPOUND: CN1CCN(C(=O)[C@H]2CC[C@H](c3ccc(C4=Nc5c(N)ncnc5OC4(C)C)cc3)CC2)CC1
ASSAY RESULT: 190 to 191 °C
--
COMPOUND: CC1(C)Oc2ncnc(N)c2N=C1c1ccc([C@H]2CC[C@H](CN3CCN(S(C)(=O)=O)CC3)CC2)cc1
ASSAY RESULT: 233 to 235 °C
--
COMPOUND: Cc1nc(N)c2c(n1)OC(C)(C)C(c1ccc(C3CC(CCC(=O)O)C3)cc1)=N2 (centres unmarked)
ASSAY RESULT: 237 to 238 °C
--
COMPOUND: CC1(C)Oc2ncnc(N)c2N=C1c1ccc(N2CCCC2)cc1
ASSAY RESULT: 191 to 196 °C
--
COMPOUND: CC1(C)Oc2ncnc(N)c2N=C1c1ccc([C@H]2CC[C@H](CC(=O)N3CCC[C@H]3CO)CC2)cc1
ASSAY RESULT: 184 to 185 °C
--
COMPOUND: CC1(C)Oc2ncnc(N)c2N=C1c1ccc([C@H]2CC[C@H](CN3CCN(C(N)=O)CC3)CC2)cc1
ASSAY RESULT: 158 to 160 °C
--
COMPOUND: CCCNC(=O)CC[C@H]1CC[C@H](c2ccc(C3=Nc4c(N)ncnc4OC3(C)C)cc2)CC1
ASSAY RESULT: 198 to 200 °C
--
COMPOUND: Cc1nc(N)c2c(n1)OC(C)(C)C(c1ccc([C@H]3CC[C@H](CNC(=O)C(C)(C)O)CC3)c(Cl)c1)=N2
ASSAY RESULT: > 250 °C
--
COMPOUND: CC1(C)Oc2ncnc(N)c2N=C1c1ccc([C@H]2CC[C@H](Cc3cnc(C4CC4)[nH]3)CC2)cc1
ASSAY RESULT: 226 to 227 °C
--
COMPOUND: CN(CC(=O)O)C(=O)[C@H]1CC[C@H](c2ccc(C3=Nc4c(N)ncnc4OC3(C)C)cc2)CC1 [Example 2-214]
ASSAY RESULT: > 250 °C
--
COMPOUND: Nc1ncnc2c1N=C(c1ccc(Br)cc1)CO2
ASSAY RESULT: > 200 °C
